The measurements presented in this section are drawn from PubChem BioAssay AID1009.

tested-target: Induced myeloid leukemia cell differentiation protein Mcl-1 (Homo sapiens)
procedure-summary: Mcl-1/Bim interaction disruptors – biochemical, bead-based flow cytometry, multiplex, primary screen (AID 1009);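 further: 0% = no compound tracer wells and 100% = peptide blocker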
experimental-setup: Bim peptide-Mcl-1 binding, at 10 µM, active compounds read high
In all, about 190,000 compounds went through this assay and about 200 (0.11%) were called active. The entries come from a sample that favours actives as a whole.
measured-metric: inhibition (%)
Answer format: numeric, % implied, no suffix.

# compound, tested-target, measured-metric, display-unit, numeric-readout
measured = [
    ("COc1cccc(NC(=O)CS(=O)(=O)c2cn(CC(=O)N3CCOCC3)c3ccccc23)c1", "Induced myeloid leukemia cell differentiation protein Mcl-1 (Homo sapiens)", "inhibition", "%", 1),
    ("CC(C)C(=O)NCc1cc(-c2ccc(Cl)cc2)no1", "Induced myeloid leukemia cell differentiation protein Mcl-1 (Homo sapiens)", "inhibition", "%", -2),
    ("Cc1ccccc1NC(=O)Cn1c(=O)n(CC2CCCO2)c(=O)c2ccccc21 (centres undefined)", "Induced myeloid leukemia cell differentiation protein Mcl-1 (Homo sapiens)", "inhibition", "%", -1),
    ("CCOC(=O)c1ccc(NNC(C)=O)c([N+](=O)[O-])c1", "Induced myeloid leukemia cell differentiation protein Mcl-1 (Homo sapiens)", "inhibition", "%", -1),
    ("COc1ccccc1NC(=O)C[n+]1ccccc1", "Induced myeloid leukemia cell differentiation protein Mcl-1 (Homo sapiens)", "inhibition", "%", 0),
    ("CC(=O)c1ccccc1NC(=O)CC1(CC(=O)O)CCCCC1", "Induced myeloid leukemia cell differentiation protein Mcl-1 (Homo sapiens)", "inhibition", "%", 0),
]

Query: Requested read-out: inhibition. Entry: O=C(O)c1cccc(NC(=S)N/N=C/c2c[nH]c3ccccc23)c1
Response: -3

Query: I'd like to know its inhibition. The compound in question is N#CCOc1ccc(C2=NO[C@@H]3[C@@H]4C[C@@H]([C@H]5C(=O)N(c6ccc7c(c6)OCO7)C(=O)[C@@H]45)[C@H]23)cc1
Response: -7

Query: Which inhibition value is on record for COc1cc(NC(=S)N2CCCC(C)C2)c(OC)cc1Cl (centres undefined) ?
Response: -5

###

tested-target: Induced myeloid leukemia cell differentiation protein Mcl-1 (Homo sapiens) (UniProt Q07820)
Sequence (Q07820 whole entry, looked up): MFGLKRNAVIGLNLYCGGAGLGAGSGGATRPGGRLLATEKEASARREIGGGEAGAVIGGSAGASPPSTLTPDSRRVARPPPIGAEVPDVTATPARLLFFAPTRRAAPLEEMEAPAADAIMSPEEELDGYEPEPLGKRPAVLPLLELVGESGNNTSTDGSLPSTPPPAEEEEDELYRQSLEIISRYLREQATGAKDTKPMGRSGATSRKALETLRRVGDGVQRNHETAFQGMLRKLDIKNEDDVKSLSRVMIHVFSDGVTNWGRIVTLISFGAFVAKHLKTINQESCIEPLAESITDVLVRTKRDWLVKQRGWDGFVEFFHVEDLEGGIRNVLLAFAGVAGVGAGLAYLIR
procedure-summary: Mcl-1/Bim interaction disruptors – biochemical, bead-based flow cytometry, multiplex, primary screen (AID 1009);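 further: 0% = no compound tracer wells and 100% = peptide blocker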
experimental-setup: Bim peptide-Mcl-1 binding, at 10 µM, active compounds read high
Hit rate of the full screen: of about 190,000 compounds, about 200 (0.11%) were called active. The sample as a whole holds a higher share of actives than the screen did.
measured-metric: inhibition (%)
Write the value in % as a bare number.

Worked set:
# compound, measured-metric, numeric-readout
rows = [
    ("CC1CCCC(NC(=O)c2cccc(N3CCCC3=O)c2)C1C (stereo not given)", "inhibition", 1),
    ("COC(=O)CNC(=O)c1ccc(OC2CCN(C(=O)C3CC3)CC2)cc1", "inhibition", -2),
    ("COc1cc(C(O)c2nc3ccccc3n2C)cc(OC)c1OC (stereo not given)", "inhibition", 0),
    ("Cc1n[nH]c(=O)nc1N/N=C/c1cccs1", "inhibition", -1),
    ("Cc1c(Cc2ccccc2)c(=O)oc2cc(OCC(N)=O)ccc12", "inhibition", 0),
    ("CCO[C@H]1OC(C(=O)N2CCOCC2)=C[C@@H](c2ccc3c(c2)OCO3)[C@@H]1CCCO", "inhibition", -2),
    ("O=C(/C=C/c1ccc(Cl)cc1)N1CCN(c2ccccc2[N+](=O)[O-])CC1", "inhibition", -1),
    ("Cc1ccc(C(=O)O)cc1N1C(=O)CCCC1=O", "inhibition", 0),
]

Query: Report inhibition for CCOC(=O)N1CCC(c2cc(=O)n(-c3ccccc3)[nH]2)CC1 please.
Response: 42

Query: Consider the compound Cc1ccc(CN2CCN(Cc3ccccc3-c3ccco3)CC2CCO)o1 (stereo not given) and give its measured inhibition.
Response: -1

###

tested-target: Induced myeloid leukemia cell differentiation protein Mcl-1 (Homo sapiens) (UniProt Q07820)
procedure-summary: Mcl-1/Bim interaction disruptors – biochemical, bead-based flow cytometry, multiplex, primary screen (AID 1009);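 further: 0% = no compound tracer wells and 100% = peptide blocker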
experimental-setup: Bim peptide-Mcl-1 binding, at 10 µM, active compounds read high
Screen size: about 190,000 compounds; about 200 (0.11%) were called active. This is one part of a sample in which actives are shown more often than they occur.
measured-metric: inhibition (%)
Output spec: scalar in %, unitless text.

Query: # lookup: inhibition of O=C(CC1SC(=Nc2ccccc2)N(Cc2ccccn2)C1=O)Nc1cccc(Cl)c1 (stereo not given)
Response: 2

Query: What does the data say about its inhibition? Entry: CC(NC(=O)CC1SC(N)=NC1=O)c1ccccc1 (stereo not given)
Response: -7

Query: I'd like to know its inhibition. The molecule in question is Cc1[nH]c2ccccc2c1/C=C(/C#N)C(=O)NC(C)C
Response: 0

Query: Field request: inhibition | item: COc1ccccc1CNS(=O)(=O)c1ccc(C)cc1
Response: -2

Query: Which inhibition reading was recorded for the molecule COCC1CCCN(Cc2cn[nH]c2-c2cc3ccccc3o2)C1 (stereo not given) ?
Response: -3

###

tested-target: Induced myeloid leukemia cell differentiation protein Mcl-1 (Homo sapiens) (UniProt Q07820)
procedure-summary: Mcl-1/Bim interaction disruptors – biochemical, bead-based flow cytometry, multiplex, primary screen (AID 1009);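 further: 0% = no compound tracer wells and 100% = peptide blocker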
experimental-setup: Bim peptide-Mcl-1 binding, at 10 µM
About 200 (0.11%) of roughly 190,000 compounds were called active. No stated cut-off is given here; in the data, active means inhibition above about 40%. This excerpt belongs to a sample that is enriched for actives.
Mark one answer only. Choices: active, inactive

Worked examples, 5 compounds total:
# compound, class
measured = [
    ("CCc1nn(CCCN2CCN(c3cccc(Cl)c3)CC2)c(=O)n1CCOc1ccccc1", "inactive"),
    ("CCOc1cccc(/C=C/c2ccc3ccccc3n2)c1OC(C)=O", "inactive"),
    ("COc1cc(C2OC(c3cc(OC)c(OC)c(OC)c3)C(C)C2C)cc(OC)c1OC (stereo not given)", "inactive"),
    ("Cc1cc(C)c(C(N)=O)c(Cl)n1", "inactive"),
    ("O=C(N/N=C/c1ccco1)c1ccc(NC(=O)C2CC2)cc1", "inactive"),
]

Lab note: next compound to report on.
Query: Outcome logged for CC(=O)N1CCN(S(=O)(=O)c2ccc(C)c([N+](=O)[O-])c2)C1C(C)C (stereo not given) in this assay:
Response: inactive

###

tested-target: Induced myeloid leukemia cell differentiation protein Mcl-1 (Homo sapiens)
procedure-summary: Mcl-1/Bim interaction disruptors – biochemical, bead-based flow cytometry, multiplex, primary screen (AID 1009);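 further: 0% = no compound tracer wells and 100% = peptide blocker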
experimental-setup: Bim peptide-Mcl-1 binding, at 10 µM, active compounds read high
In all, about 190,000 compounds went through this assay and about 200 (0.11%) were called active. The list comes from a sample in which actives are over-represented; it also holds close analogues and randomly drawn compounds.
measured-metric: inhibition (%)
Your answer is read as %, so omit the unit and give the number.

Query: Entry CN(C)C(=O)c1cccn(Cc2cccc(C(F)(F)F)c2)c1=O : reported inhibition = ?
Response: 0

Query: Fill in: inhibition of CSc1ccc(CN2C(=O)NC3(CCCCCC3)C2=O)cc1 is ___
Response: 3

Query: # inhibition lookup, item CC1CCC(C(C)C)C(=O)/C1=C\c1ccc(NC(=O)CCC(=O)O)cc1 (centres undefined)
Response: 0

Query: # input molecule: N#Cc1ccc(-c2nc3cc(C#N)c(C#N)cc3nc2-c2ccccc2)cc1C#N ; wanted: its inhibition
Response: 1

Query: Need inhibition, item Cc1ccc(C(=O)COC(=O)c2cccc(N3C(=O)c4c(C)nc5ccccc5c4C3=O)c2)cc1C
Response: -5

Query: Name the recorded inhibition for Oc1ccc(-c2nncn2-c2ccccc2)cc1 .
Response: 0

Query: Could you tell me which inhibition is on file for C=CCC(CC=C)(C(N)=O)c1ccccc1 ?
Response: 3

Query: Query (molecule): O=C(COC(=O)Cn1cnc2ccccc2c1=O)NCC12CC3CC(CC(C3)C1)C2 ; field requested: inhibition
Response: -4

Query: What value of inhibition has been recorded for this entry: O=C(CCN1C(=O)c2ccncc2C1=O)Nc1cc(F)ccc1F
Response: 0

Query: If you can, please state the reported inhibition value of Cn1cc(Cl)c(C(=O)NNC(=S)Nc2cccc(Cl)c2)n1 .
Response: -1

Query: Recorded inhibition for N#C/C(C(=S)Nc1ccccc1)=C1/NN=C(N2CCOCC2)N1c1ccccc1 , please?
Response: 0

###

tested-target: Induced myeloid leukemia cell differentiation protein Mcl-1 (Homo sapiens) (UniProt Q07820)
procedure-summary: Mcl-1/Bim interaction disruptors – biochemical, bead-based flow cytometry, multiplex, primary screen (AID 1009);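 further: 0% = no compound tracer wells and 100% = peptide blocker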
experimental-setup: Bim peptide-Mcl-1 binding, at 10 µM, active compounds read high
Hit rate of the full screen: of about 190,000 compounds, about 200 (0.11%) were called active. This excerpt belongs to a sample that is enriched for actives.
// values below are reported inhibition
Enter your answer as a number in %; do not include the unit.

Examples with their reported inhibition follow.
# mol, inhibition / %
measured = [
    ("Cc1ccc(-c2ccc(/C=N/NC(=O)CN3CCOCC3)o2)cc1[N+](=O)[O-]", -1),
    ("Cc1ccc(S(=O)(=O)NC(=O)COc2ccccc2C)cc1", 51),
]

Attention now turns to another entry.
Query: GET /values?readout=inhibition&item= Cc1ccc(C(=O)O)cc1NC(=O)c1ccc(Cn2nc(C)c(Cl)c2C)o1
Response: 1
